The origin of these recorded values is paper PMC9524151.

- experiment_notes: in vitro
- measurement_conditions: male, human, human serum
Ends that are not written are not given here.
value_type: remaining at 8 h, 20 μM

The sequence listed as TPEEHDLLMDLMGDPKKAEE [AIP2-20] shows remaining at 8 h, 20 μM equal to > 50%
